Where do these numbers come from? They come from the supplement of paper PMC9663587.

System: PDXHCI002
Assay Remarks: GRmax, 72 h; higher = less effect
Endpoint Label: GRmax, 72 h (GR)
Value expressed in GR; do not type the unit.

Study these solved cases before continuing.
[[record]]
compound = "Cc1cc(Nc2ncc(Cl)c(Nc3ccccc3S(=O)(=O)C(C)C)n2)c(OC(C)C)cc1C1CCNCC1 [Ceritinib/LDK378] (max 10 µM)"
recorded_number = -0.634

[[record]]
compound = "Cc1nc(-c2cn3c(n2)-c2ccc(-c4cnn(C(C)(C)C(N)=O)c4)cc2OCC3)n(C(C)C)n1 [Taselisib/GDC0032] (max 10 µM)"
recorded_number = -0.137


Task item: Please give the measured GRmax, 72 h for this compound: CCNC(=O)c1noc(-c2cc(C(C)C)c(O)cc2O)c1-c1ccc(CN2CCOCC2)cc1 [Luminespib/NVP-AUY922] (max 1 µM)
Reply: -0.281

Task item: And then N.N.[Cl][Pt][Cl] [Cisplatin] (max 10 µM) , what is it?
Reply: -0.0985

* * *

# GRmax, 72 h per record follows
System: HCC1937
Assay Remarks: GRmax, 72 h; higher = less effect
Value expressed in GR; do not type the unit.

[[record]]
compound = "COc1cccc2c1C(=O)c1c(O)c3c(c(O)c1C2=O)C[C@@](O)(C(=O)CO)C[C@@H]3O[C@H]1C[C@H](N)[C@H](O)[C@H](C)O1 [Doxorubicin] (max 3.162 µM)"
result_units = "GR"
recorded_number = -0.166

[[record]]
compound = "CN(C)C/C=C/C(=O)Nc1ccc(O[C@@H]2CCC[C@@H](Nc3ncc(Cl)c(-c4c[nH]c5ccccc45)n3)C2)cc1 [BSJ-01-175] (max 10 µM)"
result_units = "GR"
recorded_number = -0.603

[[record]]
compound = "CCN1CCN(Cc2ccc(Nc3ncc(F)c(-c4cc(F)c5nc(C)n(C(C)C)c5c4)n3)nc2)CC1 (max 10 µM)"
result_units = "GR"
recorded_number = 0.302


Task item: Record N.N.[Cl][Pt][Cl] [Cisplatin] (max 10 µM) : what is its GRmax, 72 h with HCC1937?
Reply: 0.006

Task item: And then CCOc1cc2ncc(C#N)c(Nc3ccc(OCc4ccccn4)c(Cl)c3)c2cc1NC(=O)/C=C/CN(C)C [Neratinib/HKI272] (max 3.162 µM) , what is it?
Reply: 0.3

Task item: And then CN(C)C(=O)c1cc2cnc(Nc3ccc(N4CCNCC4)cn3)nc2n1C1CCCC1 [LEE011/Ribociclib] (max 10 µM) , what is it?
Reply: 1.03

Task item: And then CC[C@@]1(O)C(=O)OCc2c1cc1n(c2=O)Cc2cc3c(CN(C)C)c(O)ccc3nc2-1 [Topotecan] (max 10 µM) , what is it?
Reply: -0.428

* * *

# GRmax, 72 h per record follows
Test system: HCC1500
Assay Remarks: GRmax, 72 h; higher = less effect
Value expressed in GR; do not type the unit.

Study these solved cases before continuing.
[[record]]
compound = "CO[C@H]1C[C@@H]2CC[C@@H](C)[C@@](O)(O2)C(=O)C(=O)N2CCCC[C@H]2C(=O)O[C@H]([C@H](C)C[C@@H]2CC[C@@H](OCCO)[C@H](OC)C2)CC(=O)[C@H](C)/C=C(\\C)[C@@H](O)[C@@H](OC)C(=O)[C@H](C)C[C@H](C)/C=C/C=C/C=C/1C [Everolimus] (max 10 µM)"
endpoint_label = "GRmax, 72 h"
recorded_number = -0.31

[[record]]
compound = "CN1CCN(CCOc2cc(OC3CCOCC3)c3c(Nc4c(Cl)ccc5c4OCO5)ncnc3c2)CC1 [Saracatinib/AZD0530] (max 10 µM)"
endpoint_label = "GRmax, 72 h"
recorded_number = -0.197

[[record]]
compound = "O=C(c1cc(Cc2n[nH]c(=O)c3ccccc23)ccc1F)N1CCN(C(=O)C2CC2)CC1 [Olaparib/AZD2281] (max 10 µM)"
endpoint_label = "GRmax, 72 h"
recorded_number = 0.274


Task item: Record CCNC(=O)c1noc(-c2cc(C(C)C)c(O)cc2O)c1-c1ccc(CN2CCOCC2)cc1 [Luminespib/NVP-AUY922] (max 1 µM) : what is its GRmax, 72 h with HCC1500?
Reply: -0.224

Task item: And then Cc1nc(-c2cn3c(n2)-c2ccc(-c4cnn(C(C)(C)C(N)=O)c4)cc2OCC3)n(C(C)C)n1 [Taselisib/GDC0032] (max 10 µM) , what is it?
Reply: -0.233

* * *

Tested on: HCC1937
Assay Remarks: GRmax, 72 h; higher = less effect;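 note: breast cell lines in 384-well plates, nine doses across a 10^4 range, Dye Drop imaging of viable cells vs DMSO and time-zero plates, GR 0 means no net growth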
Classification field: fulfilled = GRmax, 72 h at or over -0.2 GR; not fulfilled = GRmax, 72 h under -0.2 GR.

Would you please look over these solved cases?
[[record]]
compound = "CNC(=O)c1cccc(-c2ccc3c(N4CCOC[C@@H]4C)nc(N4CCOC[C@@H]4C)nc3n2)c1 [AZD2014] (max 10 µM)"
test_system = "HCC1937"
class_assignment = "fulfilled"

[[record]]
compound = "CN(C)CC[C@H](CSc1ccccc1)Nc1ccc(S(=O)(=O)NC(=O)c2ccc(N3CCN(Cc4ccccc4-c4ccc(Cl)cc4)CC3)cc2)cc1[N+](=O)[O-] [ABT-737] (max 10 µM)"
test_system = "HCC1937"
class_assignment = "fulfilled"

[[record]]
compound = "CCNC(=O)c1noc(-c2cc(C(C)C)c(O)cc2O)c1-c1ccc(CN2CCOCC2)cc1 [Luminespib/NVP-AUY922] (max 1 µM)"
test_system = "HCC1937"
class_assignment = "fulfilled"

[[record]]
compound = "CO[C@@H](C)Cn1c(=O)n(C)c2cnc3ccc(-c4cncc(C(C)(C)O)c4)cc3c21 (max 10 µM)"
test_system = "HCC1937"
class_assignment = "fulfilled"

[[record]]
compound = "CN(C)C/C=C/C(=O)Nc1ccc(C(=O)N2CCC[C@@H](Nc3ncc(Cl)c(-c4c[nH]c5ccccc45)n3)C2)cc1 [THZ531] (max 1 µM)"
test_system = "HCC1937"
class_assignment = "not fulfilled"


Task item: Can O=C(c1cc(Cc2n[nH]c(=O)c3ccccc23)ccc1F)N1CCN(C(=O)C2CC2)CC1 [Olaparib/AZD2281] (max 10 µM) be said to have GRmax, 72 h at or above -0.2 GR?
Reply: fulfilled

* * *

System: HCC1419
Assay Remarks: area over the GR curve, 72 h; higher = more effect;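 note: Dye Drop or Deep Dye Drop imaging of viable cells in 384-well plates (Hoechst nuclei, LIVE/DEAD dye), nine half-log doses, GR normalized to DMSO controls and time-zero plates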
# area over the GR curve per record follows
Value expressed in GR; do not type the unit.

Study these solved cases before continuing.
[[record]]
molecule = "CC[C@@]1(O)C(=O)OCc2c1cc1n(c2=O)Cc2cc3c(CN(C)C)c(O)ccc3nc2-1 [Topotecan] (max 10 µM)"
test_system = "HCC1419"
recorded_number = 0.99

[[record]]
molecule = "CC(C)Nc1cc(-c2c[nH]c(C(=O)N[C@H](CO)c3cccc(Cl)c3)c2)c(Cl)cn1 [BVD523] (max 10 µM)"
test_system = "HCC1419"
recorded_number = 0.0554

[[record]]
molecule = "C=CC(=O)Nc1ccc(C(=O)Nc2[nH]nc3c2CN(C(=O)N[C@H](CN(C)C)c2ccccc2)C3(C)C)cc1 [YKL-5-124] (max 10 µM)"
test_system = "HCC1419"
recorded_number = 1.01

[[record]]
molecule = "O=C1NC(=O)[C@@H](c2cn3c4c(cccc24)CCC3)[C@@H]1c1c[nH]c2ccccc12 [Tivantinib/ARQ197] (max 10 µM)"
test_system = "HCC1419"
recorded_number = 0.238

[[record]]
molecule = "CN(C)C/C=C/C(=O)Nc1ccc(C(=O)N2CCC[C@@H](Nc3ncc(Cl)c(-c4c[nH]c5ccccc45)n3)C2)cc1 [THZ531] (max 1 µM)"
test_system = "HCC1419"
recorded_number = 0.21


Task item: Record CC(C)n1nc(-c2ccc3oc(N)nc3c2)c2c(N)ncnc21 [INK128/MLN0128] (max 3.162 µM) : what is its area over the GR curve with HCC1419?
Reply: 0.763

Task item: And then C=CCn1c(=O)c2cnc(Nc3ccc(N4CCN(C)CC4)cc3)nc2n1-c1cccc(C(C)(C)O)n1 [AZD1775] (max 10 µM) , what is it?
Reply: 0.238

Task item: And then COc1cccc2c1C(=O)c1c(O)c3c(c(O)c1C2=O)C[C@@](O)(C(=O)CO)C[C@@H]3O[C@H]1C[C@H](N)[C@H](O)[C@H](C)O1 [Doxorubicin] (max 3.162 µM) , what is it?
Reply: 0.59

Task item: And then Cc1cc(Nc2ncc(Cl)c(Nc3ccccc3S(=O)(=O)C(C)C)n2)c(OC(C)C)cc1C1CCNCC1 [Ceritinib/LDK378] (max 10 µM) , what is it?
Reply: 0.206

Task item: And then CN1CCN(C(=O)c2ccc3cc(CCNc4ncnc5ccc(C#N)cc45)ccc3c2)CC1 [senexin b] (max 10 µM) , what is it?
Reply: 0.13

Task item: And then Cc1nc(NC(=O)N2CCC[C@H]2C(N)=O)sc1-c1ccnc(C(C)(C)C(F)(F)F)c1 [Alpelisib/BYL719] (max 10 µM) , what is it?
Reply: 0.356

Task item: And then CC(=O)Nc1cccc(-n2c(=O)n(C3CC3)c(=O)c3c(Nc4ccc(I)cc4F)n(C)c(=O)c(C)c32)c1 (max 1 µM) , what is it?
Reply: 0.285
